Experiment: Plasma clearance in Beagle dog at 0.3 mg/kg, iv
Format: ADME, organism-based, Canis lupus familiaris
Parameters: dose 0.3 mg/kg, route intravenous
reported.property: clearance (mL/min/kg)

# smiles.data, reported.property, scale.unit, obs.value
records = [
    ("C[C@@H](CO)Oc1cc(Oc2ccc(S(C)(=O)=O)cc2)cc(C(=O)Nc2nccs2)c1", "clearance", "mL/min/kg", 4.6),
]

====

Molecular target: UniProt P35557
Experiment: Activation of flag-tagged human recombinant liver glucokinase expressed in Escherichia coli by glucose-6-phosphate dehydrogenase coupled continuous spectrophotometric assay in presence of 10 mM glucose
reported.property: EC50 (nM)

# molecule, assay.system, reported.property, scale.unit, obs.value
rows = [
    ("CS(=O)(=O)c1ccc(Oc2cc(O[C@@H]3CCC[C@@H]3O)cc(C(=O)Nc3nccs3)c2)cc1", "UniProt P35557", "EC50", "nM", 1200),
    ("CS(=O)(=O)c1ccc(Oc2cc(O[C@H]3CCOC3)cc(C(=O)Nc3nccs3)c2)cc1", "UniProt P35557", "EC50", "nM", 50),
    ("CS(=O)(=O)c1ccc(Oc2cc(O[C@H]3CCC[C@H]3O)cc(C(=O)Nc3nccs3)c2)cc1", "UniProt P35557", "EC50", "nM", 110),
    ("CS(=O)(=O)c1ccc(Oc2cc(OC(CO)C(F)(F)F)cc(C(=O)Nc3nccs3)c2)cc1 (racemic)", "UniProt P35557", "EC50", "nM", 240),
]

====

Assay: Tmax in Sprague-Dawley rat at 3 mg/kg, po
Assay type: ADME, organism-based
Set-up: dose 3 mg/kg, route oral
Settings: in vivo

# smiles.data, scale.unit, Tmax
measured = [
    ("C[C@@H](CO)Oc1cc(Oc2ccc(S(C)(=O)=O)cc2)cc(C(=O)Nc2nccs2)c1", "min", 18),
]

====

Target: Hexokinase-4 (Homo sapiens)
Sequence (P35557 whole entry): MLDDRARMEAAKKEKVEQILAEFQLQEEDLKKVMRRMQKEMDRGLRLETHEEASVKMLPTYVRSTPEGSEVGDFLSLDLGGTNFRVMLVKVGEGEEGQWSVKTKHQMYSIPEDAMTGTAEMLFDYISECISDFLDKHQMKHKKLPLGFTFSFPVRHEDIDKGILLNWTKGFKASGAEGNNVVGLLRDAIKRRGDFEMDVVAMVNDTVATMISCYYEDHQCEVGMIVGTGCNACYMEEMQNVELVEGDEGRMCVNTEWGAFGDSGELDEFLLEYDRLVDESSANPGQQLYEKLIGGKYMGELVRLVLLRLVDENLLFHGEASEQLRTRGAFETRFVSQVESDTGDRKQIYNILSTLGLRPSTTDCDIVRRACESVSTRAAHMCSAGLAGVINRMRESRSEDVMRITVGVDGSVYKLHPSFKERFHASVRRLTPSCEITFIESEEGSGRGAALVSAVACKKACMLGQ
Test: Activation of flag-tagged human recombinant liver glucokinase expressed in Escherichia coli by glucose-6-phosphate dehydrogenase coupled continuous spectrophotometric assay in presence of 2.5 mM glucose
pEC50: −log10 of the molar value.
reported.property: pEC50

# molecule, assay.system, reported.property, obs.value
measured = [
    ("CCC(COC)Oc1cc(Oc2ccc(S(C)(=O)=O)cc2)cc(C(=O)Nc2nccs2)c1 (racemic)", "Hexokinase-4 (Homo sapiens)", "pEC50", 6.72),
    ("COCC(C)Oc1cc(Oc2ccc(S(C)(=O)=O)cc2)cc(C(=O)Nc2nccs2)c1 (racemic)", "Hexokinase-4 (Homo sapiens)", "pEC50", 6.72),
    ("CN1CCC(Oc2cc(Oc3ccc(S(C)(=O)=O)cc3)cc(C(=O)Nc3nccs3)c2)C1 (racemic)", "Hexokinase-4 (Homo sapiens)", "pEC50", 4.62),
]

====

Assay: Octanol-water distribution coefficient, log D at pH 7.4 by HPLC-MS analysis
// logD lookup, one value per entry
reported.property: logD

# compound, obs.value
records = [
    ("COCC(COC)Oc1cc(Oc2ccc(S(C)(=O)=O)cc2)cc(C(=O)Nc2nccs2)c1", "> 4"),
    ("Cc1csc(NC(=O)c2cc(Oc3ccc(S(C)(=O)=O)cc3)cc(OC(C)C)c2)n1", "> 5"),
    ("CS(=O)(=O)c1ccc(Oc2cc(OC(CO)C(F)(F)F)cc(C(=O)Nc3nccs3)c2)cc1 (racemic)", "> 4"),
]

====

Molecular target: Hexokinase-4 (Homo sapiens, UniProt P35557)
Experiment: Activation of flag-tagged human recombinant liver glucokinase expressed in Escherichia coli by glucose-6-phosphate dehydrogenase coupled continuous spectrophotometric assay in presence of 10 mM glucose
pEC50: −log10 of the molar value.
// pEC50 lookup, one value per entry
reported.property: pEC50

# compound, reported.property, obs.value
measured = [
    ("CS(=O)(=O)c1ccc(Oc2cc(O[C@@H]3CCC[C@H]3O)cc(C(=O)Nc3nccs3)c2)cc1", "pEC50", 5.80),
    ("COCC(COC)Oc1cc(Oc2ccc(S(C)(=O)=O)cc2)cc(C(=O)Nc2nccs2)c1", "pEC50", 6.92),
    ("CC(CN)Oc1cc(Oc2ccc(S(C)(=O)=O)cc2)cc(C(=O)Nc2nccs2)c1 (racemic)", "pEC50", 6.68),
    ("CC(CO)Cc1cc(Oc2ccc(S(C)(=O)=O)cc2)cc(C(=O)Nc2nccs2)c1 (racemic)", "pEC50", 6.60),
]

====

Experiment: Octanol-water distribution coefficient, log D at pH 7.4 by HPLC-MS analysis
reported.property: logD

# compound, obs.value
data = [
    ("CC(C)Oc1cc(Oc2ccc(S(C)(=O)=O)cc2)cc(C(=O)Nc2nccs2)c1", "> 5"),
    ("CS(=O)(=O)c1ccc(Oc2cc(OC3CCCC3)cc(C(=O)Nc3nccs3)c2)cc1", "> 5"),
    ("CCC(COC)Oc1cc(Oc2ccc(S(C)(=O)=O)cc2)cc(C(=O)Nc2nccs2)c1 (racemic)", "> 5"),
    ("CC(C)C(CO)Oc1cc(Oc2ccc(S(C)(=O)=O)cc2)cc(C(=O)Nc2nccs2)c1 (racemic)", "> 4"),
]
